Target: T1, human TIGIT on cells (human, UniProt Q495A1 22-141)
T1 construct: also called Expi293 human TIGIT over-expressing cells
T1 sequence: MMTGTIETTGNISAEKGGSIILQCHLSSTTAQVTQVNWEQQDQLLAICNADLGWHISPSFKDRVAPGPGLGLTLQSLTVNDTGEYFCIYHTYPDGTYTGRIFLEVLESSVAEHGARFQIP
Assay: flow cytometry of fab; MFI on human TIGIT over-expressing Expi293 / MFI on parental Expi293
parameter measured: MFIr (OE/Par) hTIGIT

binder: CPA.9.059 (Fab, V domains shown, phage fab, campaign 2; fab form of CPA.9.059 hIgG4 (m73); also called CPA.9.059 (fab)) VH: EVQLVETGGGLIQPGGSLRLSCAASGFTVSSNYMSWVRQAPGKGLEWVSVIYSGGSTYYADSVKGRFTISRDNSKNTLYLQMNSLRAEDTAVYYCARGARYSYGQYPYWGQGTLVTVSS VL: DIQLTQSPSFLSASVGDRVTITCRASHDISSLFSWYQQKPGKAPKLLIYAASTLQTGVPSRFSGSASGTEFTLTISSLQPEDFATYYCLQLDSFPTWTFGQGTKVEIK
parameter measured: MFIr (OE/Par) hTIGIT
result value: 11

binder: CPA.9.086 (fab) (Fab, V domains shown, variant of CPA.9.027 screened as fab) VH: EVQLVETGGGLIQPGRSLRLSCAASGFTFSSYAMHWVRQAPGKGLEWVAVISYAGEVKYYADSVKGRFTISRDNSKNTLYLQMNSLRAEDTAVYYCARDPLPLHYYGMDVWGQGTTVTVSS VL: QSALTQPRSASGNPGQRVTISCSGSSSNMGRRPVNWYQQIPGTAPKLLIYSQNQRPSGVPDRFSGSQSGTSASLTISGLQSEDEAEYFCAVWDDIGRVLQLGGGTQLAVLG
parameter measured: MFIr (OE/Par) hTIGIT
result value: 36

binder: CPA.9.083 (fab) (Fab, V domains shown, variant of CPA.9.027 screened as fab) VH: EVQLVETGGGLIQPGRSLRLSCAASGFTFSSYAMHWVRQAPGKGLEWVAVISYDGTPVYYADSVKGRFTISRDNSKNTLYLQMNSLRAEDTAVYYCARDPLPLHYYGMDVWGQGTTVTVSS VL: QSALTQPRSASGNPGQRVTISCSGSSSNMGRRPVNWYQQIPGTAPKLLIYSQNQRPSGVPDRFSGSQSGTSASLTISGLQSEDEAEYFCAVWDGDRRSLQLGGGTQLAVLG
parameter measured: MFIr (OE/Par) hTIGIT
result value: 170
